Kindly state koff for each of the entries shown.
Target: T1, mouse IL-17A (mouse, UniProt Q62386 26-158, limits assumed)
T1 construct: In SPR it was injected in solution, and no biotinylation is mentioned there; also called mIL-17A; mIL17A
T1 sequence (looked up): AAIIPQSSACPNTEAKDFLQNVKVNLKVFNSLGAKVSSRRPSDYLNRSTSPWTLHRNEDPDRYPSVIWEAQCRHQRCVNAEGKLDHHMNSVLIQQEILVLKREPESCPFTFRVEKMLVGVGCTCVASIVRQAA
Assay: SPR (ProteOn XPR-36), clone amine-coupled on chip, mIL-17A in solution, 1:1 Langmuir fit
Experimental: The affinities of select molecules binding to mIL-17A were measured using surface Plasmon resonance using a ProteOn XPR-36 instrument (Bio-Rad). […] The dissociation phases for all concentrations of all samples was monitored for 1˜2 hours at a flow rate of 100 μL/min depending on their off-rate. […]
Form entry: value (s⁻¹) — number only.

Exercise: So what's the measured koff for this one? TP1KR9P62-C6 (designed binder, also called TCL14-His fusion protein) MLPAPKNLVVSRVTEDSARLSWTAPDAAFDSFAIEYFEDWWSGEAIVLTVPGSERSCDLTGLKPGTEYSVTIRGVKGGYPSSPLSAIFTT
Key: 1.2e-05

Exercise: So what's the measured koff for this one? TP1KR9P61-A2 (designed binder, also called TCL14-His fusion protein) MLPAPKNLVVSRVTEDSARLSWTAPDAAFDSFAIEYFEDWWSGEAIVLTVPGSERSYDLTGLKPGTEYAVSIRGVKGGMPSAPLSAIFTT
Key: 3.93e-05

Exercise: So what's the measured koff for this one? TP1KR9P61-A7 (designed binder, also called TCL14-His fusion protein) MLPAPKNLVVSRVTEDSARLSWTAPDAAFDSFAIEYFEDWWSGEAIVLTVPGSERSYDLTGLKPGTEYSVSIRGVKGGYPSSPLSAIFTT
Key: 3.46e-05

Exercise: So what's the measured koff for this one? TP1KR9P61-E2 (designed binder, also called TCL14-His fusion protein) MLPAPKNLVVSRVTEDSARLSWTAPDAAFDSFAIEYFEDWWSGEAIVLTVPGSERSYDLTGLKPGTEYAVSIRGVKGGMPSPPLSAIFTT
Key: 3.96e-05

Exercise: So what's the measured koff for this one? TP1KR9P62-E3 (designed binder, also called TCL14-His fusion protein) MLPAPKNLVVSRVTEDSARLSWTAPDAAFDSFGIEYFEDYWTGEAIVLTVPGSERSYDLTGLKPGTEYAVSIRGVKGGYPSAPLSAIFTT
Key: 5.26e-05

Exercise: So what's the measured koff for this one? TP1KR9P62-C3 (designed binder, also called TCL14-His fusion protein) MLPAPKNLVVSRVTEDSARLSWTAPDAAFDSFAIEYFEDWWSGEAIVLTVPGSERSYDLTGLKPGTEYSVTIRGVKGGPPSSPLSAIFTT
Key: 1.05e-05

Exercise: So what's the measured koff for this one? TP1KR9P61-G4 (designed binder, also called TCL14-His fusion protein) MLPAPKNLVVSRVTEDSARLSWTAPDAAFDSFAIEYFEDWWSGEAIVLTVPGSERSYDLTGLKPGTEYAVSIRGVKGGYPSAPLSAIFTT
Key: 5.02e-05

Exercise: So what's the measured koff for this one? TP1KR9P62-D3 (designed binder, also called TCL14-His fusion protein) MLPAPKNLVVSRVTEDSARLSWTAPDAAFDSFAIEYFEDWWSGEAIVLTVPGSERSYDLTLKPGTEYSVSIRGVKGGYPSSPLSAIFTT
Key: 6.07e-05

Exercise: So what's the measured koff for this one? TP1KR9P62-D8 (designed binder, also called TCL14-His fusion protein) MLPAPKNLVVSRVTEDSARLSWTAPDAAFDSFAIEYFEDWWSGEAIVLTVPGSERSYDLTGLKPGTEYGVSIRGVKGGLASPPLSAIFTT
Key: 1.48e-05
